Reference source: patent US20130059879A1

run.description: Pharmacokinetics in dogs
Assay type: in vivo
recorded.conditions: dog, plasma; IV 6 mg/kg, male beagle dogs
readout: AUC(0-inf) (µg·h/mL)
Unit µg·h/mL implied. Number only.

-- ask Recorded AUC(0-inf) for Nc1ccc(C(=O)c2cc3c(ccc4ccccc43)[nH]2)cc1 , please?
-- reply 5.07

###

Test system: U937
run.description: Cancer cell proliferation, Alamar Blue assay, 72 hours
Format: cell-based
recorded.conditions: Homo sapiens, U-937
readout: IC50

{"molecule": "O=C(c1ccccc1)c1cc2c(ccc3cccnc32)[nH]1 [ACT-PFK-102]", "test.result": "> 100 µM"}
{"molecule": "COC(=O)c1ccc(C(=O)c2cc3c(ccc4ccccc43)[nH]2)cc1 [ACT-PFK-110]", "test.result": "> 100 µM"}

-- ask Recorded IC50 for Cc1cc2[nH]c(C(=O)c3ccccc3)cc2c2ccccc12 [ACT-PFK-101] , please?
-- reply > 100 µM

###

Test system: HCT-116
run.description: Cancer cell proliferation, Alamar Blue assay, 72 hours
Format: cell-based
recorded.conditions: Homo sapiens, HCT-116
Below, each of the compounds is paired with its reported IC50 value.

Reference set (4 entries):
{"compound.string": "COc1cc(C(=O)c2cc3c(ccc4ccccc43)[nH]2)ccc1OCc1ccccc1", "IC50": "> 100 µM"}
{"compound.string": "O=C(c1ccc(OCc2ccccc2)c(C(=O)O)c1)c1cc2c(ccc3ccccc32)[nH]1", "IC50": "> 100 µM"}
{"compound.string": "COc1cc(C(=O)c2cc3c(ccc4ccccc43)[nH]2)ccc1O", "IC50": "0.475 µM"}
{"compound.string": "O=C(c1cc[n+]([O-])cc1)c1cc2c(ccc3ccccc32)[nH]1", "IC50": "38.5 µM"}

--- query ---
-- ask Recorded IC50 for COc1ccccc1C(=O)c1cc2c(ccc3ccccc32)[nH]1 , please?
-- reply 0.49 µM

###

run.description: Microsomal stability in human liver microsomes
Format: in vitro ADME
recorded.conditions: 60 min incubation, 1.0 mg/ml microsomal protein, 1 mM NADPH, 37° C.
readout: HLM, Mean metabolized (%)
Unit % implied. Number only.

Reference set (5 entries):
{"compound.string": "COc1cc(C(=O)c2cc3c(ccc4ccccc43)[nH]2)ccn1", "HLM, Mean metabolized (%)": 99.6}
{"compound.string": "COc1cc(C(=O)c2cc3c(cc(F)c4ccccc43)[nH]2)ccc1O", "HLM, Mean metabolized (%)": 79.2}
{"compound.string": "O=C(c1ccccc1)c1cc2c(cc(F)c3ccccc32)[nH]1", "HLM, Mean metabolized (%)": 80}
{"compound.string": "COc1cccc(C(=O)c2cc3c(ccc4ccccc43)[nH]2)c1", "HLM, Mean metabolized (%)": 99}
{"compound.string": "COc1ccc(C(=O)c2cc3c(ccc4ccccc43)[nH]2)cc1", "HLM, Mean metabolized (%)": 95}

-- ask Recorded HLM, Mean metabolized (%) for O=C(c1ccccc1)c1cc2c3c(ccc2[nH]1)CCCC3 , please?
-- reply 100.0
